- TARGET DESC: Adenosylhomocysteinase (Homo sapiens, UniProt P23526)
- Sequence (P23526 whole entry): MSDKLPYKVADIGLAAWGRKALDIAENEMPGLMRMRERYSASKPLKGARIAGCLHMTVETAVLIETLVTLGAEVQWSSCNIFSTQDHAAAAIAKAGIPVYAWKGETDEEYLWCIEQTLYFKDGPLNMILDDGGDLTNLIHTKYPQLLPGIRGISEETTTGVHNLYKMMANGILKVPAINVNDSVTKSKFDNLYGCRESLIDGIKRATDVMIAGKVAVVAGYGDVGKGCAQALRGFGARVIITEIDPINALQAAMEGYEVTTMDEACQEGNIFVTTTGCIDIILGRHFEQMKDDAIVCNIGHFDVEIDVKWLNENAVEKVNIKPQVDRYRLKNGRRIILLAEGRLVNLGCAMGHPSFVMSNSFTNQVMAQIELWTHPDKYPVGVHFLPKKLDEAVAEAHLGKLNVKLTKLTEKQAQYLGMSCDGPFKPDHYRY
- TEST DETAILS: Inhibition of AHCY in human SH-SY5Y cells assessed as formation of homocysteine after 48 hrs by HPLC analysis
- Format: cell-based
pIC50 values for the compounds below.
// returns pIC50 (minus log10 of molar concentration), number only

"Nc1ncnc2c1ncn2[C@@H]1C=C(CCl)[C@@H](O)[C@H]1O" has a reported pIC50 of 6.03

"Nc1ncc(F)c2c1ncn2[C@@H]1C[C@H](O)[C@@H](O)[C@H]1O" has a reported pIC50 of 8.03

"Nc1ncnc2c1nc(Cl)n2[C@@H]1CC[C@@H](O)[C@H]1O" has a reported pIC50 of 5.68

"Nc1ncnc2c1ncn2[C@@H]1CC[C@@H](O)[C@H]1O" has a reported pIC50 of 8.82

"Nc1nc(F)c(F)c2c1ncn2[C@@H]1CC[C@@H](O)[C@H]1O" has a reported pIC50 of 6.72

"Nc1ncc(F)c2c1ncn2[C@@H]1C[C@H](F)[C@@H](O)[C@H]1O" has a reported pIC50 of 7.39

"Nc1ncnc2c1ncn2[C@@H]1C=C(CO)[C@@H](O)[C@H]1O" has a reported pIC50 of 8.00

"Nc1ncnc2c1ncn2[C@@H]1C=C[C@@H](O)[C@H]1O" has a reported pIC50 of 6.06

"Cc1cnc(N)c2ncn([C@@H]3CC[C@@H](O)[C@H]3O)c12" has a reported pIC50 of 7.44

"Nc1ncc(F)c2c1ncn2[C@H]1[C@H](O)[C@H](O)[C@@H]2C[C@@H]21" has a reported pIC50 of 5.71

"Nc1nc(F)nc2c1ncn2[C@@H]1CC[C@@H](O)[C@H]1O" has a reported pIC50 of 7.01

"Nc1ncc(F)c2c1ncn2[C@@H]1C[C@@H](O)[C@@H](O)[C@H]1O" has a reported pIC50 of 6.06

"Nc1ncc(F)c2c1ncn2[C@@H]1CC[C@@H](O)[C@H]1O" has a reported pIC50 of 8.89

"Nc1ncc(F)c2c1ncn2[C@@H]1C[C@@H](F)[C@@H](O)[C@H]1O" has a reported pIC50 of 6.17

* * *

- TEST DETAILS: Half life in dog
- Assay type: ADME, organism-based, Canis lupus familiaris
- PROTOCOL CONDITIONS: in vivo
METRIC: half-life
Please answer in the form of a number followed by its unit of measurement.

"Nc1ncc(F)c2c1ncn2[C@@H]1CC[C@@H](O)[C@H]1O" has a reported half-life of 3.6 h

* * *

- TEST DETAILS: Clearance in rat
- Assay type: ADME, organism-based
- PROTOCOL CONDITIONS: in vivo
METRIC: clearance (mL/min/kg)
Report only the number, with the unit mL/min/kg understood.

"Nc1ncc(F)c2c1ncn2[C@@H]1CC[C@@H](O)[C@H]1O" has a reported clearance of 21

* * *

- TEST DETAILS: Half life in rat
- Format: ADME, organism-based
- PROTOCOL CONDITIONS: in vivo
METRIC: half-life (min)
Report only the number, with the unit min understood.

"Nc1ncc(F)c2c1ncn2[C@@H]1CC[C@@H](O)[C@H]1O" has a reported half-life of 54

* * *

- TARGET DESC: Adenosylhomocysteinase (Homo sapiens, UniProt P23526)
- TEST DETAILS: Inhibition of recombinant human AHCY using SAH as substrate assessed as formation of homocysteine after 10 mins
IC50 values for the molecules below.
Report only the number, with the unit nM understood.

Solved entries (count: 3):
MOLECULE	IC50, nM
Nc1ncc(F)c2c1ncn2[C@@H]1C[C@H](O)[C@@H](O)[C@H]1O	24
Nc1ncnc2c1ncn2[C@@H]1C=C[C@@H](O)[C@H]1O	4120
Nc1ncc(F)c2c1ncn2[C@@H]1C(F)=C[C@@H](O)[C@H]1O	976

"C[C@H]1C[C@@H](n2cnc3c(N)ncc(F)c32)[C@H](O)[C@@H]1O" has a reported IC50 of 1220

"Nc1nccn2c([C@@H]3CC[C@@H](O)[C@H]3O)cnc12" has a reported IC50 of 250

Nc1ncc(F)c2c1ncn2[C@@H]1C(F)C[C@@H](O)[C@H]1O (mixture of isomers) has a reported IC50 of 455

"Nc1ncc(F)c2c1ncn2[C@@H]1C[C@H](F)[C@@H](O)[C@H]1O" has a reported IC50 of 269

"Cc1cnc(N)c2ncn([C@@H]3CC[C@@H](O)[C@H]3O)c12" has a reported IC50 of 236

"Nc1ncc(F)c2c1ncn2[C@@H]1CC[C@@H](O)[C@H]1O" has a reported IC50 of 40

"Nc1ncc(Cl)c2c1ncn2[C@@H]1CC[C@@H](O)[C@H]1O" has a reported IC50 of 16

"Nc1ncnc2c1ncn2[C@@H]1C=C(CO)[C@@H](O)[C@H]1O" has a reported IC50 of 1.5

"Nc1ncc(F)c2c1ncn2[C@@H]1C=C[C@@H](O)[C@H]1O" has a reported IC50 of 9690
